molecular target: Arachidonate 5-lipoxygenase-activating protein (Homo sapiens, UniProt P20292); assay: Inhibition of FLAP in human whole blood assessed as reduction in calcium ionophore-stimulated LTB4 production preincubated for 30 mins followed by calcium ionophore stimulation and measured after 20 mins by EIA; assay type: tissue-based
Sequence (P20292 whole entry): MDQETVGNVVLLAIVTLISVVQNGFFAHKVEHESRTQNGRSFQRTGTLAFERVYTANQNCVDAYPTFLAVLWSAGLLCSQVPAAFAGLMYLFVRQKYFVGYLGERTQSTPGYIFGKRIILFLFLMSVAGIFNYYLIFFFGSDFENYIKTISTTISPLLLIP
METRIC: IC50 (nM)

Use the examples below as a reference point.
{"columns": ["COMPOUND", "IC50, nM"],
 "data": [
  ["Cn1cc(NC(=O)[C@@H]2C[C@@H]3C[C@@H]3C[C@H]2C(=O)c2ccc(-c3cc[nH]n3)cc2)c(C(F)(F)F)n1", 25.1],
  ["Cc1nn(C)cc1NC(=O)[C@H]1CCCC[C@@H]1C(=O)c1ccc(-c2cc[nH]n2)cc1", 7940],
  ["Cn1ncc(NC(=O)[C@@H]2CCCC[C@H]2C(=O)c2ccc(-c3cc[nH]n3)cc2)c1C(F)(F)F", 50.1],
  ["Cc1nn(C)cc1NC(=O)[C@@H]1[C@H]2CC[C@H](CC2)[C@H]1C(=O)c1ccc(-c2cc[nH]n2)cc1F (racemic)", 200],
  ["Cc1nn(C)cc1N(C)C(=O)[C@@H]1CCCC[C@H]1C(=O)c1ccc(-c2cc[nH]n2)cc1", 251],
  ["O=C(NCCc1ccccn1)[C@@H]1CCCC[C@H]1C(=O)c1ccc(-c2cc[nH]n2)cc1", 2510]
]}

a = Cc1noc(C)c1NC(=O)[C@@H]1CCCC[C@H]1C(=O)c1ccc(-c2cc[nH]n2)cc1 (racemic)
b = COc1cc(NC(=O)[C@@H]2CCCC[C@H]2C(=O)c2ccc(-c3cc[nH]n3)cc2)ncn1
Could you kindly indicate whether a or b has the higher IC50 value? Give the chosen item's label as your response. a
(a: 501 nM, b: 15.8 nM)

1 = O=C(Nc1cnn2cccnc12)[C@@H]1CCCC[C@H]1C(=O)c1ccc(-c2cc[nH]n2)cc1
2 = Cc1cc(-c2ccc(C(=O)[C@@H]3CCCC[C@H]3C(=O)Nc3cn(C)nc3C)cc2)n[nH]1
Could you kindly indicate whether 1 or 2 has the higher IC50 value? Give the chosen item's label as your response. 2
(2: 63.1 nM, 1: 39.8 nM)

1 = Cn1ncc(NC(=O)[C@@H]2C[C@@H]3C[C@@H]3C[C@H]2C(=O)c2ccc(-c3cc[nH]n3)cc2)c1C(F)(F)F
2 = Cc1nn(C)cc1NC(=O)[C@@H]1CCCC[C@H]1C(=O)c1ccc(-c2ccccn2)cc1 (racemic)
Identify the item whose IC50 is the smaller number: 1 or 2 Give the chosen item's label as your response. 1
